molecular target: DYRK1A (Homo sapiens); assay: biochemical; assay type: binding; details: DYRK1A IC50, TR-FRET, dose response
experimental.readout: IC50

q: Any idea what IC50 was measured for Cc1[nH]ccc2c1[nH]c1cc(=O)ccc12 [Harmol, harmol] ?
a: 70 to 100 nM

---

target: DYRK1A (Homo sapiens, UniProt Q13627); experiment: biochemical; type: biochemical
Each record is given True if its reported IC50 is strictly below 1000 nM. Records at or above 1000 nM are given False.

molecule: CC1=NCCc2c1[nH]c1cc(O)ccc21 [Harmalol, harmalol]
group.label: True

q: Decide: IC50 of Cc1[nH]ccc2c1[nH]c1cc(=O)ccc12 [Harmol, harmol] strictly below 1000 nM?
a: True

q: Decide: IC50 of COc1ccc2c3c([nH]c2c1)C(C)=NCC3 [Harmaline, harmaline] strictly below 1000 nM?
a: True

q: Decide: IC50 of c1ccc2c(c1)[nH]c1cnccc12 [Norharmane, norharmane] strictly below 1000 nM?
a: False
